The origin of these recorded values is ChEMBL document CHEMBL1147640.

Readings of pEC50 for the listed compounds
System: KB
EXPERIMENT: Effective dose of compound against replication of KB/7d cell line was evaluated
Assay type: functional
CONDITION: Homo sapiens, read-out: ED50 (the source's name)
pEC50 is a log-scale quantity: -log10 of the concentration expressed in molar.

>  <COMPOUND>
COc1cc([C@@H]2c3cc4c(cc3[C@@H](Nc3ccc([N+](=O)[O-])cc3)[C@H]3COC(=O)[C@H]23)OCO4)cc(OC)c1O

>  <VALUE_OBSERVED>
5.82

$$$$

Here is another compound to look at.
Record COc1cc([C@@H]2c3cc4c(cc3[C@@H](Nc3ccc([N+](=O)[O-])cc3)[C@H]3COS(=O)OC[C@H]23)OCO4)cc(OC)c1O (some centres not stated) . Reported pEC50: 5.54
